Molecular target: Peroxisome proliferator-activated receptor gamma/Nuclear receptor coactivator 1 (Homo sapiens)
Sequence (P37231 whole entry): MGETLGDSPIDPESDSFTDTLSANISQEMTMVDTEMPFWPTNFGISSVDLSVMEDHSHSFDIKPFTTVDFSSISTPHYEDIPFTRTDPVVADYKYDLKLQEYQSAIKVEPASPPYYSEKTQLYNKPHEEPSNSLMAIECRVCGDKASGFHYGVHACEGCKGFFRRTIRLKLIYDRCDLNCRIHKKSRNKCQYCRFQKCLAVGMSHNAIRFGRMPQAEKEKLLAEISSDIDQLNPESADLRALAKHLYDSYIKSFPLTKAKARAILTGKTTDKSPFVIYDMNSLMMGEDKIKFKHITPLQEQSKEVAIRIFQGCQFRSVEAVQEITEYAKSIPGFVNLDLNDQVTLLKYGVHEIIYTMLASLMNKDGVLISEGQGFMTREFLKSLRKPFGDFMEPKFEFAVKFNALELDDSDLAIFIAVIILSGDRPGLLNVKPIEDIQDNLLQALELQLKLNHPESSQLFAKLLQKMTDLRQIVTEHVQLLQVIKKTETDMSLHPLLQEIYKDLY
Sequence (Q15788 whole entry, further chain): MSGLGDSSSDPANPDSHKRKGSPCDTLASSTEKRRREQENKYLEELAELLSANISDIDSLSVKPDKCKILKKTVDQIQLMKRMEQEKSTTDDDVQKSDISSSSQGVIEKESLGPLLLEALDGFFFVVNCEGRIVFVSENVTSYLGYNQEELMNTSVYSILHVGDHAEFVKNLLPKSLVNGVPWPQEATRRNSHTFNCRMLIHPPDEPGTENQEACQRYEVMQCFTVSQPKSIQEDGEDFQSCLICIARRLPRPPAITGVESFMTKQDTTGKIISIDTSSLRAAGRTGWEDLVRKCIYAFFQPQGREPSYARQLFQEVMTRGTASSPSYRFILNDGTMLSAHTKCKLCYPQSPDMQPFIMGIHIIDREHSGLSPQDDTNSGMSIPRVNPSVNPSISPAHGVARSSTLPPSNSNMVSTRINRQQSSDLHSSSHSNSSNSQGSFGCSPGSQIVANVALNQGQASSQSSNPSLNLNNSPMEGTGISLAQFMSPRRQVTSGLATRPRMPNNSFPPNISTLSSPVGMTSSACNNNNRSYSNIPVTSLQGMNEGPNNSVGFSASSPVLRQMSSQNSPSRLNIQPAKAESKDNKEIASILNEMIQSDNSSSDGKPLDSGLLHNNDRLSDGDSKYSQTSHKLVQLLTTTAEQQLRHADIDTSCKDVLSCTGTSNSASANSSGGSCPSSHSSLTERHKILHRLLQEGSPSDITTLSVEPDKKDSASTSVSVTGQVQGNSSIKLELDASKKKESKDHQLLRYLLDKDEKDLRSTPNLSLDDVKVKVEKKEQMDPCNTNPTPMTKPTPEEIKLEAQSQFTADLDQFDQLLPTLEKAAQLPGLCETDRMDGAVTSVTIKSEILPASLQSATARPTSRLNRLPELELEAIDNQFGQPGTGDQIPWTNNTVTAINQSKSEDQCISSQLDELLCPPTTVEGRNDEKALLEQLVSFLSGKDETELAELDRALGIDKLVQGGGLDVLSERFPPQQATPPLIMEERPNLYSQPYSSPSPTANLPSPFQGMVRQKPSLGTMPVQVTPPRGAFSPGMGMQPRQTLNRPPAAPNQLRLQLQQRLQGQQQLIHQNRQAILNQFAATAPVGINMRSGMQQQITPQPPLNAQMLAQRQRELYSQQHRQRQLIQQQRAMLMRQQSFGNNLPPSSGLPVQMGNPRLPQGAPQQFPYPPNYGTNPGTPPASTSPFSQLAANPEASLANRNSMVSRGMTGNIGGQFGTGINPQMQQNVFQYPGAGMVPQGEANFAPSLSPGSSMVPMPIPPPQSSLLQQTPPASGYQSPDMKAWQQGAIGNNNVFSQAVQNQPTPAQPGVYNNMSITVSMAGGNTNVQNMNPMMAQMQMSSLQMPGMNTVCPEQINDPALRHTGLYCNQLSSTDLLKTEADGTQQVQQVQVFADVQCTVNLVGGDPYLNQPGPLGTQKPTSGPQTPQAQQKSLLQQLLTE
Assay: TR-FRET dose response biochemical High Throughput Screening assay for agonists of the steroid receptor coactivator 1 (SRC-1) recruitment by the peroxisome proliferator-activated receptor gamma (PPAR gamma): non-selective agonists. [Related pubchem assays (depositor defined):AID1300, AID1808, AID504735, AID631]
Assay type: protein assay
The source made the active and inactive calls.
Classes used: active, inactive

[
  {
    "Molecule": "CC(=O)Oc1c(/C=C(\\C#N)C(N)=O)[nH]c2ccccc12",
    "Answer label": "inactive"
  },
  {
    "Molecule": "CN(C)CCCN1C(=O)C(O)=C(C(=O)c2cc3ccccc3o2)C1c1ccccc1 (centres undefined)",
    "Answer label": "active"
  },
  {
    "Molecule": "COc1ccccc1C1=NN(C(S)=Nc2ccccc2)C(c2ccco2)C1 (centres undefined)",
    "Answer label": "inactive"
  },
  {
    "Molecule": "CCn1c(=O)cc(SCC(=O)NCC2CCCO2)c2ccccc21 (centres undefined)",
    "Answer label": "inactive"
  }
]

====

Target: Caspase-3 (Homo sapiens, UniProt P42574)
Sequence (P42574 whole entry): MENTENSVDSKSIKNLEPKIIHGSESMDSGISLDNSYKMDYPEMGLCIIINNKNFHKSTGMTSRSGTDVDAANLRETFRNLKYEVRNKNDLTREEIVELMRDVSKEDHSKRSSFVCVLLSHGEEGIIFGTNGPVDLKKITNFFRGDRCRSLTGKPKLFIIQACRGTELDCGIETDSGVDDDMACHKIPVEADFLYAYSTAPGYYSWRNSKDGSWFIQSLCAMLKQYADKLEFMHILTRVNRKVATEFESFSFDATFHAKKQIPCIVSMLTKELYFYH
Test: SAR Analysis of small molecule inhibitors of Sentrin-specific proteases (SENPs) using a Caspase-3 Selectivity assay. [Related pubchem assays (depositor defined):AID2540, AID2599, AID434973, AID489001]
Assay type: functional
Calls of active or inactive are those of the source.
Possible outcomes: y for active, n for inactive

[
  {
    "Smiles string": "O=C(Nc1nc2ccc(Cl)cc2s1)c1ccc(C(F)(F)F)cc1",
    "System tested": "Caspase-3 (Homo sapiens, UniProt P42574)",
    "Answer label": "n"
  },
  {
    "Smiles string": "N#Cc1c(NC(=O)c2ccc(Cn3cc(Br)cn3)o2)sc2c1CCCCC2",
    "System tested": "Caspase-3 (Homo sapiens, UniProt P42574)",
    "Answer label": "n"
  },
  {
    "Smiles string": "O=C(Nc1ccc(F)c(F)c1)c1ccc2c(c1)OCO2",
    "System tested": "Caspase-3 (Homo sapiens, UniProt P42574)",
    "Answer label": "y"
  },
  {
    "Smiles string": "Cc1csc(C(=O)Nc2nc3ccccc3s2)c1",
    "System tested": "Caspase-3 (Homo sapiens, UniProt P42574)",
    "Answer label": "y"
  },
  {
    "Smiles string": "O=C1/C(=C/c2cccc(F)c2)Oc2cc(O)ccc21",
    "System tested": "Caspase-3 (Homo sapiens, UniProt P42574)",
    "Answer label": "y"
  },
  {
    "Smiles string": "CC(=O)Oc1ccccc1/C=C(\\C)c1noc(-c2ccccc2O)n1",
    "System tested": "Caspase-3 (Homo sapiens, UniProt P42574)",
    "Answer label": "n"
  }
]

====

System: INS1
Test: INS-1E survival protection against cytokine death – cell-based, luminescence, retest, dose response (AID 449756);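 also: cell death triggered by IL-1 beta plus TNF-alpha plus IFN-gamma mixture; protective hits raise ATP signal compared with cytokine alone wells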
Assay type: functional
Conditions: Rattus norvegicus
Calls of active or inactive are those of the source.
Property measured: AC50

[
  {
    "Compound": "CN(C)CCCNc1c2ccccc2nc2ccccc12",
    "Property measured": "AC50",
    "Result": "0.533 µM (active)"
  },
  {
    "Compound": "CCC(C)Nc1nc(-c2ccccn2)nc2ccccc12 (stereo not given)",
    "Property measured": "AC50",
    "Result": "2.89 µM (active)"
  },
  {
    "Compound": "O=C(Nc1nc(-c2ccccn2)cs1)Nc1ccc(F)cc1F",
    "Property measured": "AC50",
    "Result": "3.4 µM (active)"
  },
  {
    "Compound": "COc1cc(NC(=O)c2[nH]cnc2C(N)=O)cc(C(=O)Nc2cccc(C(F)(F)F)c2)c1",
    "Property measured": "AC50",
    "Result": "3.48 µM (active)"
  },
  {
    "Compound": "Cc1ccc(C)c(-c2csc(NC(=O)C3=COCCO3)n2)c1",
    "Property measured": "AC50",
    "Result": "7.19 µM (active)"
  }
]

====

Biological target: DNA repair and recombination protein RAD54-like (Homo sapiens)
Sequence (Q92698 whole entry): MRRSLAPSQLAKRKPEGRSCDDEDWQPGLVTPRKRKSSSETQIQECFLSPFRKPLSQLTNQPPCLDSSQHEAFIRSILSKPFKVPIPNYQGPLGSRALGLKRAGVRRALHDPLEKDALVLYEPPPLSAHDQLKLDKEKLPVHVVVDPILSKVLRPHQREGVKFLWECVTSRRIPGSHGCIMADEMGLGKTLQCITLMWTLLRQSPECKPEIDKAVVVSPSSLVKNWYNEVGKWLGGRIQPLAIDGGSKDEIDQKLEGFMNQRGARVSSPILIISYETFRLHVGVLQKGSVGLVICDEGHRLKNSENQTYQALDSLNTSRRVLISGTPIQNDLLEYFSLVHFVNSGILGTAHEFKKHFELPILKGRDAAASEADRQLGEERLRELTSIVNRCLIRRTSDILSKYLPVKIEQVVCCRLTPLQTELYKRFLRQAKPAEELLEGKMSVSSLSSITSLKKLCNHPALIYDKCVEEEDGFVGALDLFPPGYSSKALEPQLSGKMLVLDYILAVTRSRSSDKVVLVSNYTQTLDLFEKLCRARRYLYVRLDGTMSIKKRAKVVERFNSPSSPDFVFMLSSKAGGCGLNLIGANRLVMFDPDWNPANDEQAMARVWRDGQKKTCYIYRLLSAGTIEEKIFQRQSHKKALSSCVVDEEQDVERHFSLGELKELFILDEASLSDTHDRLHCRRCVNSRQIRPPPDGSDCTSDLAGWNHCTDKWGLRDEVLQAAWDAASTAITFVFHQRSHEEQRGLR
Experiment: RAD54 Holliday junction migration blockers – biochemical, fluorescence, cherry-picked samples, dose series, confirmation (AID 651657)
Assay type: functional
Active and inactive are the calls of the source.
Property measured: AC50

[
  {
    "Smiles string": "CN(C)CCCNc1c2ccccc2nc2ccccc12",
    "Result": "0.814 µM (active)"
  },
  {
    "Smiles string": "CN1CCN(c2nc(-c3ccncc3)nc3ccccc23)CC1",
    "Result": "8.41 µM (active)"
  },
  {
    "Smiles string": "c1ccc(-c2nc(NCCCN3CCOCC3)c3ccccc3n2)cc1",
    "Result": "32.4 µM (active)"
  },
  {
    "Smiles string": "CN1CCC[C@H]1CCNc1ccc2c(=O)c3ccccc3n(C)c2c1",
    "Result": "5.81 µM (active)"
  }
]

====

AC50 by entry:
Target: Cytochrome P450 2D6 (Homo sapiens, UniProt P10635);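 also: CYP2D6 member of a cytochrome P450 panel assay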
Sequence (P10635 whole entry): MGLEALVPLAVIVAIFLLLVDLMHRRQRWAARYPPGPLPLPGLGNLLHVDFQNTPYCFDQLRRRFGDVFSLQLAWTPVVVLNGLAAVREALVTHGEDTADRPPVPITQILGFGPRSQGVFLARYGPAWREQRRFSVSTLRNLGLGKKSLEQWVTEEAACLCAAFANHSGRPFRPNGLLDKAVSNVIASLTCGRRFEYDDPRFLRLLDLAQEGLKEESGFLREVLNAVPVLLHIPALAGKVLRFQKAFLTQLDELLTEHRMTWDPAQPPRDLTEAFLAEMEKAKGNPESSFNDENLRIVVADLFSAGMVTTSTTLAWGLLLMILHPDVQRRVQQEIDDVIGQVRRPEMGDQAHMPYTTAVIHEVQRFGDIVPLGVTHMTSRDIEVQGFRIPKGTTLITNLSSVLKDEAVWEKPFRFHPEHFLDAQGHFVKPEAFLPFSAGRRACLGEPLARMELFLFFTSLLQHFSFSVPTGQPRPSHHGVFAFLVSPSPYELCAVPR

[
  {
    "Molecule": "COC(=O)[C@@]1(Cc2ccc(F)cc2)[C@H]2c3cc(C(=O)N(C)C)n(Cc4ccc(C(F)(F)F)nc4)c3C[C@H]2CN1C(=O)c1ccccc1",
    "AC50": "20 µM (inconclusive)"
  },
  {
    "Molecule": "c1ccc(CN2CCCC3(CCNCC3)C2)cc1",
    "AC50": "12.6 µM (inconclusive)"
  },
  {
    "Molecule": "COC(=O)[C@@]1(Cc2ccc(F)cc2)[C@H]2c3cc(C(=O)N(C)C)n(Cc4ccc(C)o4)c3C[C@H]2CN1C(=O)c1ccccc1",
    "AC50": "39.8 µM (inconclusive)"
  },
  {
    "Molecule": "O=[N+]([O-])c1ccc2c(c1NC1CCCCC1)=NC1(CCCCC1)[N+]=2[O-]",
    "AC50": "14.1 µM (inconclusive)"
  },
  {
    "Molecule": "CCc1ccc(N/C(SCc2ccccc2C)=C(/C#N)C(=O)NCc2ccco2)cc1",
    "AC50": "15.8 µM (inconclusive)"
  },
  {
    "Molecule": "CC(C)OC(=O)c1nnn(-c2nonc2N)c1CSc1ccccn1",
    "AC50": "15.8 µM (inconclusive)"
  },
  {
    "Molecule": "COc1ccc(-c2nc3cnc(N4CCNCC4)nc3n(CCc3ccccc3)c2=O)cc1",
    "AC50": "15.8 µM (inconclusive)"
  },
  {
    "Molecule": "C[C@@H](C(=O)NCc1nc2ccccc2[nH]1)[C@@H]1C[C@@]1(C)[C@@H](NC(=O)OCc1ccccc1)c1ccccc1",
    "AC50": "15.8 µM (inconclusive)"
  },
  {
    "Molecule": "c1ccc(CNc2ncncc2-c2cccnc2)cc1",
    "AC50": "39.8 µM (inconclusive)"
  },
  {
    "Molecule": "CN1CCN(c2ncncc2-c2ccoc2)CC1",
    "AC50": "31.6 µM (inconclusive)"
  },
  {
    "Molecule": "COC(=O)N1CCC2(CCN(C(=O)Nc3ccc(OC)cc3)CC2)CC1",
    "AC50": "39.8 µM (inconclusive)"
  },
  {
    "Molecule": "NC1=Nc2ccccc2Oc2ccccc21",
    "AC50": "20 µM (inconclusive)"
  },
  {
    "Molecule": "CCN(CC)C[C@@H](O)c1ccc2ccc3ccccc3c2c1",
    "AC50": "3.16 µM (inconclusive)"
  },
  {
    "Molecule": "CCCCC1CCC(c2nc(-c3ccccn3)no2)CC1 (stereo not given)",
    "AC50": "25.1 µM (inconclusive)"
  },
  {
    "Molecule": "CC(C)NC(=O)C1CC(=O)N(c2ccc(F)c(Cl)c2)C1 (stereo not given)",
    "AC50": "14.1 µM (inconclusive)"
  },
  {
    "Molecule": "CCOC(=O)C1CCN(c2c(NCc3ccc(C(=O)NCCC(C)C)cc3)c(=O)c2=O)CC1",
    "AC50": "0.398 µM (inconclusive)"
  },
  {
    "Molecule": "[H]/N=C(\\N/C(=N/[H])Nc1ccc(Cl)cc1)NC(C)C [PROGUANIL]",
    "AC50": "10 µM (inconclusive)"
  },
  {
    "Molecule": "O=c1cnc2cnc(N3CCNCC3)nc2n1CCc1ccccc1",
    "AC50": "15.8 µM (inconclusive)"
  },
  {
    "Molecule": "COc1ccc(O[C@H]2C=C[C@@H](c3ccccc3)O[C@H]2COC(=O)CC/C(C)=N/OCC[C@@H]2C=C[C@H](OC(C)=O)[C@H](COC(C)=O)O2)cc1",
    "AC50": "0.794 µM (inconclusive)"
  },
  {
    "Molecule": "CCOC(=O)Nc1ccc2c(c1)OCO2",
    "AC50": "35.5 µM (inconclusive)"
  },
  {
    "Molecule": "c1cncc(CNc2nc(-c3cccnc3)nc3ccccc23)c1",
    "AC50": "20 µM (inconclusive)"
  },
  {
    "Molecule": "CCNc1ncc2nc(C)c(=O)n(C)c2n1",
    "AC50": "39.8 µM (inconclusive)"
  },
  {
    "Molecule": "O=C(CSc1nnc(COc2ccccc2)n1-c1ccccc1)c1ccccc1",
    "AC50": "31.6 µM (inconclusive)"
  },
  {
    "Molecule": "O=C(c1csnn1)N1CCC2(CC1)CN(c1cccc(-c3ccccc3)c1)C2",
    "AC50": "10 µM (inconclusive)"
  },
  {
    "Molecule": "COCCn1c(=O)c(-c2ccc(OC)cc2)nc2cnc(OC)nc21",
    "AC50": "25.1 µM (inconclusive)"
  }
]

Recorded values, source ChEMBL document CHEMBL1201862.
